Below, each entry is listed with its recorded pIC50.
System: PC-9
Test: Antiproliferative activity against human PC-9 cells expressing EGFR Del19 mutant assessed as inhibition of cell growth measured after 48 to 72 hrs by MTT assay
Format: functional, cell-based
pIC50: −log10 of the molar value.

# Smiles Structure, Tgt, pIC50
measured = [
    ("C=CC(=O)Nc1cc(Nc2ncc(Cl)c(Nc3ccccc3S(=O)(=O)NC3CC3)n2)c(OC)cc1N(C)CCN(C)C", "PC-9", 7.70),
    ("C=CC(=O)Nc1cc(Nc2nccc(-c3cn(C)c4ccccc34)n2)c(OC)cc1N(C)CCN(C)C", "PC-9", 7.64),
]

###

Below, each entry is listed with its recorded IC50.
Tested on: A549
Assay: Antiproliferative activity against human A549 cells expressing wild type EGFR assessed as inhibition of cell growth measured after 48 to 72 hrs by MTT assay
Assay type: functional, cell-based
Value Kind: IC50

# Smiles Structure, Tgt, Observed
records = [
    ("C=CC(=O)Nc1cc(Nc2ncc(Cl)c(Nc3ccccc3S(=O)(=O)NC3CC3)n2)c(OC)cc1N(C)CCN(C)C", "A549", "1.54 µM"),
    ("C=CC(=O)Nc1cc(Nc2nccc(-c3cn(C)c4ccccc34)n2)c(OC)cc1N(C)CCN(C)C", "A549", "1.56 µM"),
]

###

Biological target: Epidermal growth factor receptor (Homo sapiens, UniProt P00533, L858R/T790M)
Sequence (P00533 25-1210 T790M/L858R limits assumed): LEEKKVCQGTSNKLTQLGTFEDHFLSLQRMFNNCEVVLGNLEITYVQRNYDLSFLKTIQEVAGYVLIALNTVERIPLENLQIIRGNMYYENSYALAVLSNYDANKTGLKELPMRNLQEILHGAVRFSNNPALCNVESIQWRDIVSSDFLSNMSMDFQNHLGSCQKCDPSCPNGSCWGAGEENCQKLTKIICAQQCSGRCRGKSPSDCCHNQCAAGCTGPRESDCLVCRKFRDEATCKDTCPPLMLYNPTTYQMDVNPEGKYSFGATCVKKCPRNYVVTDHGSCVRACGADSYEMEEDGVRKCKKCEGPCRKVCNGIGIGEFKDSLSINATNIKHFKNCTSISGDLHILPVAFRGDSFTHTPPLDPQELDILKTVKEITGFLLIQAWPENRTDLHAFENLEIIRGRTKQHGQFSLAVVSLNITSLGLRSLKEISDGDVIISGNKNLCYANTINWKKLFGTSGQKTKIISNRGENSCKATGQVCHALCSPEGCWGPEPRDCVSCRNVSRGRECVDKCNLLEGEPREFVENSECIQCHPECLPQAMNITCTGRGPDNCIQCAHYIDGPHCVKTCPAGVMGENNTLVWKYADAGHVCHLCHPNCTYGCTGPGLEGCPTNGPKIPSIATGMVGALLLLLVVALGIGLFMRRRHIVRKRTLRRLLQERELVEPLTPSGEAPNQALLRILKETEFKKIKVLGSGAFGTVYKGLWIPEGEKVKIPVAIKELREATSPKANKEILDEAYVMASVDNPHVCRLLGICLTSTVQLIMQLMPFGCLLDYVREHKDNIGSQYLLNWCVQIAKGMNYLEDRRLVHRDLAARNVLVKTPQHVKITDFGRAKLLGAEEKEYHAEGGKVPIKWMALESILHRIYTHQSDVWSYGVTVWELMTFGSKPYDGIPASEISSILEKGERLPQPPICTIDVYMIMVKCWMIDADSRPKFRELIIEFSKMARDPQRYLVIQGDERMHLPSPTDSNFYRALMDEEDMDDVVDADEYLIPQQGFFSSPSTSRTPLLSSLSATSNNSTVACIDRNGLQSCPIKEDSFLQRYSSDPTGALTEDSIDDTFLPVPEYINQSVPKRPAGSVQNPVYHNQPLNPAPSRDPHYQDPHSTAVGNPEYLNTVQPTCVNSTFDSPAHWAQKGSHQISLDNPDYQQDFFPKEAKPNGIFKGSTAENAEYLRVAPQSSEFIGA
Experiment: Inhibition of EGFR L858R/T790M double mutant (unknown origin) pre-incubated for 10 mins followed by substrate addition measured after 60 mins in presence of ATP by mobility shifting assay

# Smiles Structure, Value Unit, IC50
records = [
    ("C=CC(=O)Nc1cc(Nc2ncc(Cl)c(Nc3ccccc3S(=O)(=O)NC3CC3)n2)c(OC)cc1N(C)CCN(C)C", "nM", 1.08),
]

###

Assay: Cytotoxicity against human EA.hy 926 cells assessed as inhibition of cell growth measured after 48 to 72 hrs by MTT assay
Type: toxicity, cell-based

# Smiles Structure, IC50 / nM
rows = [
    ("C=CC(=O)Nc1cc(Nc2nccc(-c3cn(C)c4ccccc34)n2)c(OC)cc1N(C)CCN(C)C", 1160),
    ("Cc1cc(Nc2ncc(Cl)c(Nc3ccccc3S(=O)(=O)C(C)C)n2)c(OC(C)C)cc1C1CCNCC1", 1010),
    ("C=CC(=O)Nc1cc(Nc2ncc(Cl)c(Nc3ccccc3S(=O)(=O)NC3CC3)n2)c(OC)cc1N(C)CCN(C)C", 1610),
]

###

Below, each entry is listed with its recorded pIC50.
Assay: Cytotoxicity against human HK-2 cells assessed as inhibition of cell growth measured after 48 to 72 hrs by MTT assay
Type: toxicity, cell-based
pIC50: −log10 of the molar value.

# Smiles Structure, pIC50
rows = [
    ("C=CC(=O)Nc1cc(Nc2nccc(-c3cn(C)c4ccccc34)n2)c(OC)cc1N(C)CCN(C)C", 5.62),
    ("C=CC(=O)Nc1cc(Nc2ncc(Cl)c(Nc3ccccc3S(=O)(=O)NC3CC3)n2)c(OC)cc1N(C)CCN(C)C", 5.48),
    ("Cc1cc(Nc2ncc(Cl)c(Nc3ccccc3S(=O)(=O)C(C)C)n2)c(OC(C)C)cc1C1CCNCC1", 5.60),
]
